// data source = ChEMBL document CHEMBL1671722

- System: Serratia marcescens
- METHOD_SUMMARY: Antimicrobial activity against Serratia marcescens by broth microdilution method
- Assay type: functional
READOUT_TYPE: MIC90 (µg/mL)

| MOLECULE | READOUT_TYPE | QUALIFIER_SIGN | EXPERIMENTAL_RESULT |
| --- | --- | --- | --- |
| c1cc2cc(-c3ccc(-c4cc5ccc(C6=NCCN6)cc5[nH]4)cc3)[nH]c2cc1C1=NCCN1 | MIC90 | = | 2 |
| CN(C)c1cc(NC(=O)CNC(C)(C)C)c(O)c2c1C[C@H]1C[C@H]3[C@H](N(C)C)C(O)=C(C(N)=O)C(=O)[C@@]3(O)C(O)=C1C2=O [TIGECYCLINE] | MIC90 | = | 2 |
| c1cc2cc(-c3ccc(-c4cc5ccc(C6=NCCCN6)cc5[nH]4)cc3)[nH]c2cc1C1=NCCCN1 | MIC90 | = | 0.25 |
| C[C@@H](O)[C@H]1C(=O)N2C(C(=O)O)=C(SCCNC=N)C[C@H]12 [IMIPENEM ANHYDROUS] | MIC90 | > | 8 |
